Hey, just so you know, these numbers are from paper PMC4336329.

target of assay: human ether-à-go-go-related gene (hERG) potassium channel (human, UniProt Q12809);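 note: peak tail current of the secondary pulse compared with the same well before compound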
Sequence (Q12809 whole entry, looked up): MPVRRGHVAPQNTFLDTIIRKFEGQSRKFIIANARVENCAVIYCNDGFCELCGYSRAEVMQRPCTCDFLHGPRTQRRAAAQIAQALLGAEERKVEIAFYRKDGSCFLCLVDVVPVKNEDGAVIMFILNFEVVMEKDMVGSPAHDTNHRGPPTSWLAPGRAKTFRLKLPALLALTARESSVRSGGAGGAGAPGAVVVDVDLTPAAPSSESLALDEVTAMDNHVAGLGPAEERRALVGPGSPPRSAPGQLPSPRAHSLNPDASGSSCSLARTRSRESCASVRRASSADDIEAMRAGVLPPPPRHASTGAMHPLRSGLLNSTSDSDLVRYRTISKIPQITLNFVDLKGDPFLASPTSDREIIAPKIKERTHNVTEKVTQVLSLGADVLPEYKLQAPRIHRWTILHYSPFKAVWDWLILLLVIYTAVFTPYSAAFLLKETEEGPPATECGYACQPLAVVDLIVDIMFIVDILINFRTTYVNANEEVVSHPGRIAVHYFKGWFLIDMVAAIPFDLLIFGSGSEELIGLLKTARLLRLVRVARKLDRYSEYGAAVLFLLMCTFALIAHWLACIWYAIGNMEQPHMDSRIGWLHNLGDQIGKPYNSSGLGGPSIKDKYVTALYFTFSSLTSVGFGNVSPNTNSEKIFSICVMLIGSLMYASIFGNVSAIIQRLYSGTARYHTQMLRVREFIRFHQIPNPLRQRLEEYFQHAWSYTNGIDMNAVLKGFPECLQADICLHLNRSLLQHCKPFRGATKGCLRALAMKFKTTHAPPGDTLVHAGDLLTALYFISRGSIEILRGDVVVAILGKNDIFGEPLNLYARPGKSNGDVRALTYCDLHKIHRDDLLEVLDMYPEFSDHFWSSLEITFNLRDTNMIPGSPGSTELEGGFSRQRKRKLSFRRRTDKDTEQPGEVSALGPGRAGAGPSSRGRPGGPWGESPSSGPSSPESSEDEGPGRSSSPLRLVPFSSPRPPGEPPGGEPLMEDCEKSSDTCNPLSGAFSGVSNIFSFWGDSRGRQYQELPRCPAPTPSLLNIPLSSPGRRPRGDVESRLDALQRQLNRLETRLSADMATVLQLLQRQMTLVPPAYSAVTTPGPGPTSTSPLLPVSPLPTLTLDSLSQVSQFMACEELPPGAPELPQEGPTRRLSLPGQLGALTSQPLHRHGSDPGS
assay remarks: primary screen, population patch clamp on CHO cells stably expressing hERG; higher = less effect of the substance
The whole screen tested about 310,000 compounds, of which about 14,000 (4.5%) showed an effect of 50% or more. The effect is printed as a negative number. The entries come from a sample that favours strong results as a whole.
observable: hERG current change (%, negative = inhibition) at 10uM (%)
One number for each entry, in %.

For every record below, what is its hERG current change (%, negative = inhibition) at 10uM?
1. COCCCNC(=S)N1CCN(c2ccccc2)CC1
2. Cc1cccc(N2CCN(C(=O)Cn3nc(Cc4ccncc4)c4ccccc4c3=O)CC2)c1C
3. O=C(CCN1CCN(CC(=O)Nc2ccccc2F)CC1)Nc1ccccc1F
4. O=C(COc1cc2oc(=O)c3c(c2cc1Cl)CCC3)NCC1CCC(C(=O)O)CC1 (stereo not shown)
5. O=C(CSc1nnc(-c2ccccc2)n1Cc1ccco1)NCc1ccc2c(c1)OCO2
6. CCCC(=O)NC(=S)N1CCN(c2ccc([N+](=O)[O-])cc2)CC1

1. 12.9
2. -61.3
3. -65.4
4. 5.36
5. -14.5
6. -20.7

====

target of assay: human ether-à-go-go-related gene (hERG) potassium channel (human);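 note: peak tail current of the secondary pulse compared with the same well before compound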
assay remarks: primary screen, population patch clamp on CHO cells stably expressing hERG; higher = less effect of the substance
In all, about 310,000 compounds went through this assay and about 14,000 (4.5%) showed an effect of 50% or more. The effect is printed as a negative number. Many of the other results were omitted from the sample, so strong results are more common in it than they were.
For each entry below, report its hERG current change (%, negative = inhibition) at 10uM value.
Give bare numbers, in %.

The examples below pair each entry with its known result.
{"columns": ["compound", "unit of measure", "experimental result"],
 "data": [
  ["Cn1nc(C(=O)OCc2ccc(F)cc2)c2ccccc2c1=O", "%", 3.57],
  ["CC(=O)Nc1ccccc1-c1nn[nH]n1", "%", 0.73],
  ["CC(C)Nc1nnc(SCC(=O)Nc2ccc3c(c2)C(=O)c2ccccc2C3=O)s1", "%", -2.55],
  ["O=C(OCc1nc2ccccc2[nH]1)C1CCCCC1", "%", 2.85],
  ["COc1ccc(CNC(=O)COC(=O)c2ccc(C)c(S(=O)(=O)N3CCOCC3)c2)cc1OC", "%", 6.13]
]}

Now examine the next entry.
For this compound ( CC1Cc2ccccc2N1C(=S)NC(=O)c1ccco1 (stereo not drawn) ), measured hERG current change (%, negative = inhibition) at 10uM is 16.2

====

Kindly state hERG current change (%, negative = inhibition) at 10uM for each of the entries shown.
target of assay: human ether-à-go-go-related gene (hERG) potassium channel (human);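 note: peak tail current of the secondary pulse compared with the same well before compound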
assay remarks: primary screen, population patch clamp on CHO cells stably expressing hERG; higher = less effect of the substance
Hit rate of the full screen: of about 310,000 compounds, about 14,000 (4.5%) showed an effect of 50% or more. The effect is printed as a negative number. The list comes from a sample in which strong results are over-represented; it also holds close analogues and randomly drawn compounds.
Answers are plain numbers, in %.

These recorded examples may help you get a feel for the data.
{"columns": ["compound", "experimental result"],
 "data": [
  ["CN1C(C(=O)NCc2cccc(Br)c2)CC2Cn3c(nc4ccccc43)C21 (stereo not shown)", -67.7],
  ["COc1cc(CN2CCC(CO)(CCOc3ccccc3)CC2)cc(OC)c1OC", -38.3],
  ["Cc1c(CCC(=O)O)c(=O)oc2cc3occ(-c4ccccc4)c3cc12", -27.8]
]}

// batch mode: one hERG current change (%, negative = inhibition) at 10uM value per listed entry
1. O=C(Nc1cc(S(=O)(=O)N2CCOCC2)ccc1N1CCOCC1)c1cn2ccccc2n1
2. O=C(Nc1ccc(Cl)c(S(=O)(=O)N2CCOCC2)c1)c1cn2ccccc2n1
3. OCC1(CCOc2ccccc2)CCN(Cc2cc(Cl)ccc2O)CC1

1. -52.3
2. 11.9
3. -24.7

For every listed record, write down its hERG current change (%, negative = inhibition) at 10uM.
1. Cc1cc2nc3n(c2cc1C)CC1CC(C(=O)NCc2ccco2)N(C)C31 (stereo not shown)
2. Cc1ccccc1NC(=O)CCN1CCN(Cc2ccccc2)CC1
3. C(=C\c1ccco1)/c1nc2ccccc2[nH]1
4. Cc1ccccc1NC(=O)c1ccc(CN2CCC(Cc3ccccc3)CC2)cc1
5. CC(=O)N(CCc1cccc(C)c1)Cc1cc2ccc(C)cc2[nH]c1=O
6. COc1ccc(OC)c(C(=O)COC(=O)c2c(OC)cccc2OC)c1

-29
-27.2
8.91
-52.2
-19.7
8.03

List reported hERG current change (%, negative = inhibition) at 10uM for each of these compounds:
1. CN1C(C(=O)NCc2ccccc2)CC2Cn3c(nc4ccccc43)C21 (stereo not shown)
2. Cc1nc2nc(COc3ccccc3)[nH]n2c(=O)c1Cc1ccccc1

1. -0.69
2. 0.308
